Target: human liver glycogen phosphorylase a (HLGPa) (Homo sapiens, UniProt P06737)
Construct: creating a full-length cDNA fused at the 5′ end to codons for methionine-glycine-alanine-histidine; 6xHis tag (leader Met-Gly-Ala-His6-Gly-Gly) (N); made in house; host or cells: E. coli (bacterial expression plasmid pTXK1007LTev)
Sequence (P06737 2-847 limits assumed): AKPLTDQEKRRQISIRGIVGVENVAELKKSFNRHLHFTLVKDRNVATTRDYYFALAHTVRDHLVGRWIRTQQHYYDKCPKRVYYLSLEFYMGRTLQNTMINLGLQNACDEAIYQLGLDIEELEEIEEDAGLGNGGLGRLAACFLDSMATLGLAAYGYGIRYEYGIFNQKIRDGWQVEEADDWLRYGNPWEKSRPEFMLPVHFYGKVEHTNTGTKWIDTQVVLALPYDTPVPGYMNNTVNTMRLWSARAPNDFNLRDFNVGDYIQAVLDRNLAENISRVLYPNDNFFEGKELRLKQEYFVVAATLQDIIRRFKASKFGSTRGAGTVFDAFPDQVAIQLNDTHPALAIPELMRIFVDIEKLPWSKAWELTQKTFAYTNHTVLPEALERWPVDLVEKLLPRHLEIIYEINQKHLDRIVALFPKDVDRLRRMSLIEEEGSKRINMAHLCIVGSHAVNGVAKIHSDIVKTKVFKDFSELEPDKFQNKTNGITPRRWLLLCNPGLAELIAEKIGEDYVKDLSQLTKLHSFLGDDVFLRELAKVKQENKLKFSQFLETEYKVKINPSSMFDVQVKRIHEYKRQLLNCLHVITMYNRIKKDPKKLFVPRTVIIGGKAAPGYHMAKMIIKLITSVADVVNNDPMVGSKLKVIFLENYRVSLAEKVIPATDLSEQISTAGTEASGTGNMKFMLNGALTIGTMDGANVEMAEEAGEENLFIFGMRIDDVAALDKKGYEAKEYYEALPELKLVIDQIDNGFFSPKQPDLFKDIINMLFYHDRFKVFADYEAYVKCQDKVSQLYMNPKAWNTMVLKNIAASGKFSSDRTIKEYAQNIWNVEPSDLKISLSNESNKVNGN
Test: Human liver glycogen phosphorylase a enzymatic activity assay (coupled, fluorescent resorufin readout, with and without 10 mM glucose)
Format: biochemical
Details: human liver glycogen phosphorylase a enzymatic activity assay
pIC50: −log10 of the molar value. Where a name gives a salt, the structure may show the parent alone.
OBSERVATION_TYPE: pIC50

COc1cc(NC(=O)Nc2c(C)cccc2Cl)c(C(=O)N[C@@H](Cc2c[nH]c3ccccc23)C(=O)O)cc1OC [Example 75, trifluoroacetate]: 6.12

[P] Cc1cc(C)c(NC(=O)Nc2cc3ccccc3cc2C(=O)N[C@H](C(=O)O)c2ccc(O)cc2)c(C)c1
[Q] Cc1cccc(Cl)c1NC(=O)Nc1cc2ccccc2cc1C(=O)N1CCC[C@H]1C(=O)O
// returns P or Q , whichever has the lower pIC50 Use the label to indicate which entry you chose. Q

* * *

Biological target: human liver glycogen phosphorylase a (HLGPa) (Homo sapiens)
Construct: creating a full-length cDNA fused at the 5′ end to codons for methionine-glycine-alanine-histidine; 6xHis tag (leader Met-Gly-Ala-His6-Gly-Gly) (N); made in house; host or cells: E. coli (bacterial expression plasmid pTXK1007LTev)
Sequence (P06737 2-847 limits assumed): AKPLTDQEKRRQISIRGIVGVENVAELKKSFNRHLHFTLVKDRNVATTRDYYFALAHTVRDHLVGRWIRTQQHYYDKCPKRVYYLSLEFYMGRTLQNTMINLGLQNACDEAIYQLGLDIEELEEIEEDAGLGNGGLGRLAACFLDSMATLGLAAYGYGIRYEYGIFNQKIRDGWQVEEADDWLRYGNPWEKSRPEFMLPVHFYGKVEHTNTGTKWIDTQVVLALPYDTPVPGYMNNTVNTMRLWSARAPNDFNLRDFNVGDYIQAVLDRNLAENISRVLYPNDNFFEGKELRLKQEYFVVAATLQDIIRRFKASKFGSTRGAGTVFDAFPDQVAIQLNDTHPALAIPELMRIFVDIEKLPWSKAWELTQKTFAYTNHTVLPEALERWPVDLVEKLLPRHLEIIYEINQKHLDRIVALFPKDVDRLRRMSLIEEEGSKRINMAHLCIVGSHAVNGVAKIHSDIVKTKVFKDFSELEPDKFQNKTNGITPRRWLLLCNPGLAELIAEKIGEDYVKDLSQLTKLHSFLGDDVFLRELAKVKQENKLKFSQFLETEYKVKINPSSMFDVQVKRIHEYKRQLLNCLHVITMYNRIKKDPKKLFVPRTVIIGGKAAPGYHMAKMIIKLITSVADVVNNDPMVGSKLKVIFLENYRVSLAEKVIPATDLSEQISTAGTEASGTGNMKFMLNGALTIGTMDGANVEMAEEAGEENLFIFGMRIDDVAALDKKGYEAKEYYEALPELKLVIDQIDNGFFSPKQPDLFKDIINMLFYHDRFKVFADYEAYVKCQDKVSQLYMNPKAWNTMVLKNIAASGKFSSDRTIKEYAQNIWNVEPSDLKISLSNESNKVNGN
Test: Human liver glycogen phosphorylase a enzymatic activity assay (coupled, fluorescent resorufin readout, with and without 10 mM glucose)
Assay type: biochemical
Settings: human liver glycogen phosphorylase a enzymatic activity assay
OBSERVATION_TYPE: IC50 (nM)

[1] Cc1cccc(C)c1NC(=O)Nc1cc2ccccc2cc1C(=O)N[C@H](C(=O)O)[C@@H](C)O
[2] CCCc1cc(C)c(NC(=O)Nc2cc(F)ccc2C(=O)N[C@H](C(=O)O)C2CCCCC2)c(C)c1
[3] COc1ccc(-c2nc(C(=O)O)c(NC(=O)Nc3c(C)cc(C)cc3C)s2)cc1
[4] CCCC[C@H](NC(=O)c1sc(-c2ccc(OC)cc2)cc1NC(=O)Nc1c(C)cc(C)cc1C)C(=O)O
[5] Cc1ccc(NC(=O)Nc2c(C)cccc2C)c(C(=O)N[C@H](C(=O)O)C2CCCCC2)c1
Sort the entries above by IC50, smallest first. Use the labels to give the requested order. 2, 4, 5, 1, 3

[I] Cc1cc(C)c(NC(=O)Nc2cc(-c3ccc([N+](=O)[O-])cc3)ccc2C(=O)N[C@H](C(=O)O)C2CCCCC2)c(C)c1
[II] Cc1cc(C)c(NC(=O)Nc2cc3ccccc3cc2C(=O)Nc2cc(C(=O)O)cc(C(=O)O)c2)c(C)c1
Consider entries I and II . Which has the numerically lower IC50? Kindly state the label of the option you pick. I

[A] Cc1cccc(C)c1NC(=O)Nc1cc(C(F)(F)F)ccc1C(=O)N[C@H](C(=O)O)C1CCCCC1
[B] Cc1cc(C)c(NC(=O)Nc2cc(-c3ccc(F)c(F)c3)ccc2C(=O)N[C@@H](C(=O)O)[C@H](C)OC(C)(C)C)c(C)c1
[C] COc1cc(NC(=O)Nc2c(C)cccc2Cl)c(C(=O)N[C@@H](CC(=O)O)C(=O)O)cc1OC
[D] O=C(Nc1cc2ccccc2cc1C(=O)N[C@H](C(=O)O)C1CCCCC1)Nc1c(Cl)cc(F)cc1Cl
# sort list by recorded IC50, greatest to least Field: ranking. Enter the labels in the order requested. C, A, B, D
(C: 19800 nM, A: 2330 nM, B: 675 nM, D: 86 nM)

[1] Cc1cccc(C)c1NC(=O)Nc1cc2ccccc2cc1C(=O)N[C@@H](CC(N)=O)C(=O)O
[2] O=C(Nc1cc(Cl)ccc1C(=O)N[C@H](C(=O)O)C1CCCCC1)Nc1c(Cl)cccc1Cl [Example 156]
// select label with min value of measured IC50 from [ 1 , 2 ] When you have decided, please share the label of that item. 2

* * *

Molecular target: human liver glycogen phosphorylase a (HLGPa) (Homo sapiens, UniProt P06737)
Construct: creating a full-length cDNA fused at the 5′ end to codons for methionine-glycine-alanine-histidine; 6xHis tag (leader Met-Gly-Ala-His6-Gly-Gly) (N); made in house; host or cells: E. coli (bacterial expression plasmid pTXK1007LTev)
Assay: Human liver glycogen phosphorylase a enzymatic activity assay (coupled, fluorescent resorufin readout, with and without 10 mM glucose)
Format: biochemical
Details: human liver glycogen phosphorylase a enzymatic activity assay
pIC50: −log10 of the molar value.
OBSERVATION_TYPE: pIC50

O=C(Cc1c(Cl)cc(C(F)(F)F)cc1Cl)Nc1cc2ccccc2cc1C(=O)N[C@H](C(=O)O)C1CCCCC1: 6.96
O=C(Cc1c(Cl)cccc1Cl)Nc1cc2ccccc2cc1C(=O)N[C@H](C(=O)O)C1CCCCC1: 5.17

[1] COc1ccc(-c2nc(C(=O)N[C@H](C(=O)O)C3CCCCC3)c(NC(=O)Nc3c(C)cccc3C(C)C)s2)cc1
[2] O=C(Nc1cc(-c2cccnc2)sc1C(=O)N[C@H](C(=O)O)C1CCCCC1)Nc1c(Cl)cccc1Cl
[3] Cc1cccc(C)c1NC(=O)Nc1cc(Cl)ccc1C(=O)NCC(=O)O
[4] CCCCCc1cc(C)c(NC(=O)Nc2cc(F)ccc2C(=O)N[C@H](C(=O)O)C2CCCCC2)c(C)c1
[5] Cc1cccc(C)c1NC(=O)Nc1cc(F)c(F)cc1C(=O)N[C@@H](CC(=O)O)C(=O)O
Let's sort these by pIC50, smallest first. Go ahead? Hello, could you send the labels back in the order asked? Thank you. 5, 3, 1, 2, 4
